# STUDY TARGET: Amine oxidase [flavin-containing] A (Homo sapiens)
# Sequence (P21397 whole entry): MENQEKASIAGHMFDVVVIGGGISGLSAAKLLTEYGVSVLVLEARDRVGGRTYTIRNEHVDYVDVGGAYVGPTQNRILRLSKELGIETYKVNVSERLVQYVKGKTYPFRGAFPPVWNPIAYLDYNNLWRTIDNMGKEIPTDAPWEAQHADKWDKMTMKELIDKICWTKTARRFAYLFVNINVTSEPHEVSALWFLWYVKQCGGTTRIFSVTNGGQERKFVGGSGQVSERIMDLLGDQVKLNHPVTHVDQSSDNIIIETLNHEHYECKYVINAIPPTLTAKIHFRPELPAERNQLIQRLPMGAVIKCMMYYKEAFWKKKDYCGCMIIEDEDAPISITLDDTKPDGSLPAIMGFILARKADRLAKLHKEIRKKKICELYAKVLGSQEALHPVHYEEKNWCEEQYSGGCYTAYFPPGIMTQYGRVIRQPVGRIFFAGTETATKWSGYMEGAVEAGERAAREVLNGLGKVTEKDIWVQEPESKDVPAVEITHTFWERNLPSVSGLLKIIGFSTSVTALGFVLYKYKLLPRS
# STATED CONDITIONS: 20 min, read-out: INH
# Description: Inhibition of human recombinant MAO-A using p-tyramine as substrate assessed as formation of H2O2 at 100 uM preincubated for 15 mins under dark condition followed by substrate addition measured after 20 mins by fluorescence assay relative to control
EXPERIMENTAL READOUT: inhibition at 100 µM (%)
Report the figure in % without appending any unit label.

Example compounds with recorded inhibition at 100 µM:
>>> quantitative_readout("COc1ccc(/C=C2\\COc3cc(O)ccc3C2=O)cc1 [BONDUCELLIN]")
24.1
>>> quantitative_readout("COc1ccc(CC2COc3cc(OCCCCCCNc4c5c(nc6ccccc46)CCCC5)ccc3C2=O)cc1 (stereo not given)")
78.2
>>> quantitative_readout("O=C1/C(=C/c2ccc(Cl)cc2)COc2cc(OCCCCCCNc3c4c(nc5ccccc35)CCCC4)ccc21")
23.3
>>> quantitative_readout("CN(C)c1ccc(/C=C2\\COc3cc(OCCCCCCNc4c5c(nc6ccccc46)CCCC5)ccc3C2=O)cc1")
31.5

Now for the compound whose inhibition at 100 µM we want.
Exercise: Return reported inhibition at 100 µM. Input compound: COc1ccc(/C=C2\COc3cc(OCCCCCCNc4c5c(nc6ccccc46)CCCC5)ccc3C2=O)cc1
Solution: 48.3
